- assay.summary: chemical genetic growth profiling, strain panel (AID 1159580);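 note: tested at 20 µM; growth read once vehicle control cultures reached saturation at 30 °C; 1 = growth at the plate median or of vehicle wells; lower values mean less growth of the strain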
- condition.set: S. cerevisiae deletion strains, growth OD, locus YMR129W, hits give low values
The whole screen tested about 5,500 compounds, of which about 2,000 (36%) were called active. Roughly 18% stayed inconclusive and do not appear here. Some of the results follow.
Here the recorded normalized growth is given for each entry.
Keep it simple and answer with nothing but the number.

Q. Quick one: normalized growth for CC(C)=CCOc1cc2oc(=O)ccc2cc1O ?
A. 0.961

---

- assay.summary: chemical genetic growth profiling, strain panel (AID 1159580)
- condition.set: S. cerevisiae deletion strains, growth OD, locus YLR342W, strain FKS1 (second series)
About 2,000 (36%) of roughly 5,500 compounds were called active. Another 18% or so got no clear call; they are omitted. No stated cut-off is given here; in the data, active means normalized growth mostly below about 0.91 (no sharp cut-off); inconclusive means no clear call, values can overlap the other calls; inactive means mostly above about 0.92. This is one part of the list.
API: response.call in t for active, f for inactive

Consider the following illustrative entries.
- compound: "Nc1ncnc2nc[nH]c12"
  assigned.class: "f"
- compound: "N#C/C(=C\\c1ccc(O)cc1)C(=O)O"
  assigned.class: "f"
- compound: "Cn1c(=O)[nH]c(=O)c2[nH]cnc21"
  assigned.class: "f"
- compound: "CCOC(=O)C1=C(C)NC(C)=C(C(=O)OC)C1c1cccc([N+](=O)[O-])c1 (stereo not given)"
  assigned.class: "f"
- compound: "O=c1[nH]cnc2nc[nH]c12"
  assigned.class: "f"
- compound: "CCCCC/C=C\\C/C=C\\C/C=C\\C/C=C\\CCCC(=O)O"
  assigned.class: "f"

Q. Tell me the recorded outcome of this test for NCCS .
A. f

Q. Another compound to check: Cc1cc(O)c2c(c1O)C(=O)c1c(O)cc(C)c(O)c1C2=O
A. f

Q. Moving on to CCOc1nc2cccc(C(=O)OC(C)OC(=O)OC3CCCCC3)c2n1Cc1ccc(-c2ccccc2-c2nn[nH]n2)cc1 (stereo not given)
A. f

Q. Same for COc1ccc(Cc2nccc3cc(OC)c(OC)cc23)cc1OC
A. f

Q. Also Nc1ncnc2c1ncn2[C@@H]1O[C@H](CO)[C@@H](O)[C@@H]1O , if possible.
A. f

Q. Follow-up entry: C/C=C(\C)C(=O)OC1[C@@H]2C=C3C4CC(=O)O[C@@H](c5ccoc5)[C@]4(C)CCC3[C@@](C)(C2=O)[C@@H](C(O)C(=O)OC)C1(C)C (stereo not given in full)
A. f

---

- assay.summary: chemical genetic growth profiling, strain panel (AID 1159580)
- condition.set: S. cerevisiae deletion strains, growth OD, locus YMR277W, strain FCP1, hits give low values
Hit rate of the full screen: of about 5,500 compounds, about 2,000 (36%) were called active. Not shown: some 18% with an inconclusive outcome. The list shows a part of the results.
outcome.measure: normalized growth
// response body must contain only the number

Worked examples follow.
- compound: "COc1ccc(-c2cc(NS(=O)(=O)c3cccc(F)c3)n(-c3ccc(Cl)c(Cl)c3)n2)cc1"
  normalized growth: 0.947
- compound: "O=S(=O)(Nc1cc(-c2cccs2)nn1-c1ccc(I)cc1)c1cccc(F)c1"
  normalized growth: 0.968
- compound: "FC(F)(F)c1ccc(C2Sc3ccccc3N=C3c4ccccc4CC32)cc1 (configuration not stated)"
  normalized growth: 1.02
- compound: "CSc1sc(-c2ccn[nH]2)c(-c2ccccc2)c1C#N"
  normalized growth: 0.984

Q. Request the reported normalized growth associated with CC(C)(C)c1cc(C(=O)/C(C#N)=N\Nc2ccc(Cl)cc2)no1
A. 0.953

Q. How about CCOC(=O)C(O)(c1ccc(NC(=O)Nc2ccc(Cl)cc2)cc1)C(F)(F)F (configuration not stated) ?
A. 0.999

Q. And COc1cc(OC)cc(/C(N)=N\O)c1 ?
A. 0.997

Q. Can you handle O=C(Nc1ccc(OC(F)(F)F)cc1)Nc1cncc(C(F)(F)F)c1 next?
A. 0.992

Q. Okay, and CCCCCc1ccc(-c2nc(SCC(C)=O)n[nH]2)cc1 ?
A. 0.932

Q. Item: CN(NC(=S)Nc1cc(Cl)ccc1Cl)c1ccc(C(F)(F)F)cc1[N+](=O)[O-]
A. 0.972

Q. Can you check Fc1ccc(Nc2nc(-c3ccc(F)c(F)c3)cs2)c(F)c1 next?
A. 0.0934

Q. Similarly, O=C(O)c1cccc2cccc(C(=O)O)c12 ?
A. 0.0893

Q. Another compound to check: FC(F)(F)c1ccc(NC(=S)Nc2ccc(C(F)(F)F)cc2Cl)c(Cl)c1
A. 0.944

Q. For O=C1OC(Nc2ccccc2SCc2ccccc2Cl)c2ccccc21 (configuration not stated) then?
A. 0.979

Q. Now consider O=C(NCc1ccc(F)c(Cl)c1)Nc1csc([N+](=O)[O-])c1 .
A. 0.991

Q. Next compound: CCC1(c2ccccc2)OC(c2cc(Cl)cc(Cl)c2O)Nc2ccccc21 (configuration not stated)
A. 0.968

Q. What about this compound? Nc1ccc(N2CCN(c3ccc(C(F)(F)F)cn3)CC2)nc1
A. 0.952

---

- assay.summary: chemical genetic growth profiling, strain panel (AID 1159580);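 note: tested at 20 µM; growth read once vehicle control cultures reached saturation at 30 °C; 1 = growth at the plate median or of vehicle wells; lower values mean less growth of the strain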
- condition.set: S. cerevisiae deletion strains, growth OD, locus YGL086W, strain mad1, hits give low values
In all, about 5,500 compounds went through this assay and about 2,000 (36%) were called active. About 18% were inconclusive and are not listed. This is one part of the list.
outcome.measure: normalized growth

Q. Any idea what its normalized growth is? The compound is COC(=O)C1=CO[C@@H](O[C@@H]2O[C@H](CO)[C@@H](O)[C@H](O)[C@H]2O)[C@@H]2[C@@H](C)[C@@H](O)C[C@H]12
A. 0.943 (inactive)

---

- assay.summary: chemical genetic growth profiling, strain panel (AID 1159580);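 note: tested at 20 µM; growth read once vehicle control cultures reached saturation at 30 °C; 1 = growth at the plate median or of vehicle wells; lower values mean less growth of the strain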
- condition.set: S. cerevisiae deletion strains, growth OD, locus YAL030W, strain snc1
Hit rate of the full screen: of about 5,500 compounds, about 2,000 (36%) were called active. About 18% were inconclusive and are not listed. No stated cut-off is given here; in the data, active means normalized growth mostly below about 0.91 (no sharp cut-off); inconclusive means no clear call, values can overlap the other calls; inactive means mostly above about 0.92. This is one part of the list.
Mark one answer only. Choices: active, inactive

A selection of reference data follows.
- compound: "CCOC(=O)C1=C(C)NC(C)=C(C(=O)OC)C1c1cccc([N+](=O)[O-])c1 (stereo unspecified)"
  assigned.class: "inactive"
- compound: "O=C(/C=C/C(=O)Oc1ccccc1C(=O)O)Oc1ccccc1C(=O)O"
  assigned.class: "inactive"
- compound: "CCOc1nc2cccc(C(=O)OC(C)OC(=O)OC3CCCCC3)c2n1Cc1ccc(-c2ccccc2-c2nn[nH]n2)cc1 (stereo unspecified)"
  assigned.class: "inactive"
- compound: "Cc1cc(C)nc(NS(=O)(=O)c2ccc(N)cc2)n1"
  assigned.class: "inactive"
- compound: "CC(=O)N[C@@H](CC(=O)O)C(=O)O"
  assigned.class: "inactive"
- compound: "CCS(=O)(=O)CCn1c([N+](=O)[O-])cnc1C"
  assigned.class: "inactive"
- compound: "CC(=O)O[C@@H]1CC2C(C)(C)[C@H](O)C[C@H](O)[C@]2(C)C2CC[C@@]3(C)C(=CC(=O)O[C@H]3c3ccoc3)[C@@]21C (stereo partly specified)"
  assigned.class: "inactive"
- compound: "COc1c(O)cc(O)cc1O"
  assigned.class: "inactive"

Q. Name the outcome recorded for CC(=O)Oc1ccc2c(c1)CCC1C2CCC2(C)C1CC(OC(C)=O)C2OC(C)=O (stereo unspecified) in the assay.
A. inactive

Q. Now consider CC(C)=CCOc1c2occc2cc2ccc(=O)oc12 and answer again.
A. active

Q. // same read-out, input: C[N+]1(C)CCc2cc3c(cc2[C@H]1C1OC(=O)c2c1ccc1c2OCO1)OCO3 (stereo partly specified)
A. inactive

Q. Next entry: C[C@]12CCC3C(CC[C@H]4CC(=O)CC[C@]34C)C1CCC2=O (stereo partly specified)
A. inactive

Q. Try this compound next: CCCCCN=C(N)N/N=C\c1c[nH]c2ccc(OC)cc12
A. inactive

Q. Next entry: C[C@H]1C(=O)O[C@@H]2CCN3CC=C(COC(=O)[C@](C)(O)[C@]1(C)O)[C@H]23
A. inactive

Q. Next up: CCCc1nc(C(C)(C)O)c(C(=O)OCc2oc(=O)oc2C)n1Cc1ccc(-c2ccccc2-c2nn[nH]n2)cc1
A. inactive

---

- assay.summary: chemical genetic growth profiling, strain panel (AID 1159580);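 note: tested at 20 µM; growth read once vehicle control cultures reached saturation at 30 °C; 1 = growth at the plate median or of vehicle wells; lower values mean less growth of the strain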
- condition.set: S. cerevisiae deletion strains, growth OD, locus YLR371W, strain rom2, hits give low values
The whole screen tested about 5,500 compounds, of which about 2,000 (36%) were called active. Another 18% or so got no clear call; they are omitted. This is one part of the list.
We label by threshold. Values of normalized growth strictly beneath 1 are Met. Values of 1 and up are Not met.

Q. Is normalized growth of CCOc1ccc(Cc2nccc3cc(OCC)c(OCC)cc23)cc1OCC strictly below 1?
A. Met

Q. Same again, this time with CC1=C2[C@](C)(C=CC1=O)C[C@H](O)[C@H]1[C@H](C)C(=O)O[C@]21C
A. Not met

Q. Continue with O=c1[nH]cnc2nc[nH]c12
A. Met

Q. Okay, and Cc1cc(C)nc(NS(=O)(=O)c2ccc(N)cc2)n1 ?
A. Met
